Biological target: T1, GDF-11 (UniProt O95390 299-407)
T1 sequence (looked up): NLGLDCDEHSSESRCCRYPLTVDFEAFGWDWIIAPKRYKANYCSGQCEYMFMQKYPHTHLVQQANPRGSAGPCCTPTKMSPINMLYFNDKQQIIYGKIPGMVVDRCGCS
Experiment: cell-based or functional assay
Known IC50, SBE-luciferase reporter in HEK293 cells of a selection of binders
Kindly provide the numeric value in µg/mL only, without the unit symbol.

binder="ActRIIB-B3 (SEQ ID NO: 112) chimera-Fc protein (Fc fusion, Tested as chimera-Fc protein; not shown: linker (if any) and Fc domain) GRGEAETRECIYYNANWELERTNQSGLERCEGEQDKRRHCFATWKNISGTIELVKKGCWLDDFNCYDRQECVATEENPQVYFCCCEGNFCNERFTHLPEAGGPEVTYEPPPTAPT" unit_abbreviation=µg/mL reported_value=0.14
binder="ActRIIB-B7 (SEQ ID NO: 115) chimera-Fc protein (Fc fusion, Tested as chimera-Fc protein; not shown: linker (if any) and Fc domain) GRGEAETRECIYYNANWELERTNQSGLERCEGEQDKRLHCYASWRNSSGTIELVKKGCWLDDFNCYDRQECVATEENPQVYFCCCEGNFCNEKFSYFPEAGGPEVTYEPPPTAPT" unit_abbreviation=µg/mL reported_value=0.15
binder="ActRIIB-A6 (SEQ ID NO: 124) chimera-Fc protein (Fc fusion, Tested as chimera-Fc protein; not shown: linker (if any) and Fc domain) GRGEAETRECIYYNANWELERTNQSGLERCEGEQDKRLHCYASWRNSSGTIELVKKGCWLDDFNCYDRQECVATKDSPEVYFCCCEGNFCNERFTHLPEAGGPEVTYEPPPTAPT" unit_abbreviation=µg/mL reported_value=0.25

As a next step, examine the binder that follows.
Q. Param item = ActRIIB-A7 (SEQ ID NO: 125) chimera-Fc protein (Fc fusion, Tested as chimera-Fc protein; not shown: linker (if any) and Fc domain) GRGEAETRECIYYNANWELERTNQSGLERCEGEQDKRLHCYASWRNSSGTIELVKKGCWLDDFNCYDRQECVATEENPQVYFCCCEGNMCNERFTHLPEAGGPEVTYEPPPTAPT ; retrieve measured IC50, SBE-luciferase reporter in HEK293 cells.
A. 0.13
